target: T1, HLA-DR DRB1*0101 (human); assay: radioligand inhibition, purified HLA-DR; conditions: remark: other sources report otherwise
T1 chain 1: not shown
T1 chain 2: not shown
value-kind: IC50 (nM)

binder	scale-unit	IC50
CHLFYNEQQEARGVH [Peptide 9019.0023]	nM	2490

(a) SPGLSAGATVGIMIG [CEA.680 peptide 9019.0144]
(b) GYVIGTQQATPGPAY [CEA.81 peptide 9019.0110]
(c) TVGIMIGVLVGVALI [CEA.688 peptide 9019.05]
Prompt: List from greatest to least IC50. The labels, placed in the requested order, form the answer.
Completion: a, c, b
(a: 3510 nM, c: 384 nM, b: 21 nM)
